Molecular target: CDK9 (Homo sapiens, UniProt P50750)
Construct: full-length human kinases from Carna Biosciences; purchased Carna Biosciences 04-110
Sequence (P50750 whole entry): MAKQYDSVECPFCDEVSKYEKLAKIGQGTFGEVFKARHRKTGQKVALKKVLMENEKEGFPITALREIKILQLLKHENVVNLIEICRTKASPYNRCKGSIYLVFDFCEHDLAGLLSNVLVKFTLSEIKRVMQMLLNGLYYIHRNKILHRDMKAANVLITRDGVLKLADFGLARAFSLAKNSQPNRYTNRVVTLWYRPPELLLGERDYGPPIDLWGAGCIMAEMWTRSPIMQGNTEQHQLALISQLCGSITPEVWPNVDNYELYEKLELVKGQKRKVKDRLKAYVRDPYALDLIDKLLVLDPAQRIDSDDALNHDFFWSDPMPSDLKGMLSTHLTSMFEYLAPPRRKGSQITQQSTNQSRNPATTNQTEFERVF
Sequence (O60563 whole entry partner): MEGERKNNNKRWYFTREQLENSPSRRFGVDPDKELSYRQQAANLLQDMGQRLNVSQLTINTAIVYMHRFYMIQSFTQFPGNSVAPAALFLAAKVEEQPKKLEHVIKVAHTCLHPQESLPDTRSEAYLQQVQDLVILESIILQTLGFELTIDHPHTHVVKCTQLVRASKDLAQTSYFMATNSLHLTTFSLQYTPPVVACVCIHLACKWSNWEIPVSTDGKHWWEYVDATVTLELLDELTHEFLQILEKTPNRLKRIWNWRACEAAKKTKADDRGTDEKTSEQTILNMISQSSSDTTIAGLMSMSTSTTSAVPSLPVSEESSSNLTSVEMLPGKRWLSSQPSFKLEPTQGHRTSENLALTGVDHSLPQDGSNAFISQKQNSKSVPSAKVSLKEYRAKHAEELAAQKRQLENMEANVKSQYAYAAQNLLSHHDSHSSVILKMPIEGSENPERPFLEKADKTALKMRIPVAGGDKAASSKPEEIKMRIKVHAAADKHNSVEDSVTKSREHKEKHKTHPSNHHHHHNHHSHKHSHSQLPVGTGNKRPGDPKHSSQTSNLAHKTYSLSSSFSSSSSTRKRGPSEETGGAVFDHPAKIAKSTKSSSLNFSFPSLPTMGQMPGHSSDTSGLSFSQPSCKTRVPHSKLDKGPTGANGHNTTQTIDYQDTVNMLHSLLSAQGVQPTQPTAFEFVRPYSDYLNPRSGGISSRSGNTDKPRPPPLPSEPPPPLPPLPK
Assay: Kinase TR-FRET assay, CDK9
Type: biochemical
Conditions: full-length human kinase, 10 μM ATP
Procedure: Inhibition of the enzymatic activity of human kinases was evaluated in a Time-Resolved Fluorescence Resonance Energy Transfer (TR-FRET) assay in 384-well reaction plates. […] After one hour, the reaction plates were read using a fluorescence reader (EnVision®, Perkin Elmer) at 620 nm and 665 nm (excitation at 340 nm); when the Europium donor fluorophore is excited by light at 340 nm, an energy transfer (620 nm) to the acceptor occurs, which will then emit light at 665 nm.
Classify: True when IC50 is strictly less than 2 µM; False when IC50 is not.

COMPOUND	CAT
Cc1nc2ccc(-c3cc(N)nc(N)c3)nc2n1Cc1ccccn1	True
CCCCn1c(C)nc2ccc(-c3cc(N)nc(N)c3)nc21	True
Cc1nc2ccc(-c3cc(N)nc(N)c3)nc2n1C(C)(C)C	True
Cc1nc2ccc(-c3ccnc(N)c3)nc2n1CCC1CCCCC1	True
Cc1nc2ccc(-c3cc(N)nc(N)c3)nc2n1CC1CC1(Cl)Cl (stereo not drawn)	True

Q: Is it true that IC50 reported for Cc1nc2ccc(-c3cc(N)nc(N)c3)nc2n1C1CCSCC1 is less than 2 µM?
Result: True

Q: Is it true that IC50 reported for COc1ccccc1OCCn1c(C)nc2ccc(-c3cc(N)nc(N)c3)nc21 is less than 2 µM?
Result: False

Q: Is it true that IC50 reported for Cc1nc2ccc(-c3cc(N)nc(N)c3)nc2n1CCc1cccs1 is less than 2 µM?
Result: True

Q: Is it true that IC50 reported for Cc1nc2ccc(-c3cc(N)nc(N)c3)nc2n1CC(F)F is less than 2 µM?
Result: False

###

Molecular target: His-TEV-DYRK1A Kinase domain (aa127-485) (Homo sapiens)
Construct: His-TEV-DYRK1A Kinase domain (aa127-485); His tag (N); TEV protease cleavage site (N)
Assay: Kinase ADP assay (ADP Hunter), DYRK1A kinase domain
Type: biochemical
Conditions: 20 μM ATP
Classify: 1 when IC50 is strictly less than 0.01 µM; -1 when IC50 is not.

Example entries begin here.
COMPOUND	CAT
Cc1nc2ccc(-c3cc(N)nc(N)c3)nc2n1CC1CCCC1 [Example 89]	-1
Cc1nc2ccc(-c3cc(N)nc(N)c3)nc2n1CCc1ccc(Cl)c(Cl)c1 [Example 58]	-1
CCC(CC)n1c(C)nc2ccc(-c3cc(N)nc(N)c3)nc21 [Example 68]	-1
Cc1nc2ccc(-c3cc(N)nc(N)c3)nc2n1Cc1ccoc1 [Example 42]	1
Cc1nc2ccc(-c3cc(N)nc(N)c3)nc2n1CCc1ccccc1C(F)(F)F [Example 79]	-1

Q: Is it true that IC50 reported for Cc1nc2ccc(-c3cc(N)nc(N)c3)nc2n1Cc1ccccc1Cl [Example 47] is less than 0.01 µM?
Result: -1

Q: Is it true that IC50 reported for Cc1nc2ccc(-c3cc(N)nc(N)c3)nc2n1CCC1CCCO1 (stereo not drawn) [Example 85] is less than 0.01 µM?
Result: -1

Q: Is it true that IC50 reported for COc1cccc(OCCn2c(C)nc3ccc(-c4cc(N)nc(N)c4)nc32)c1 [Example 202] is less than 0.01 µM?
Result: -1

Q: Is it true that IC50 reported for Cc1cccc(O[C@@H](C)Cn2c(C)nc3ccc(-c4cc(N)nc(N)c4)nc32)c1 [Example 127] is less than 0.01 µM?
Result: -1

Q: Is it true that IC50 reported for Cc1nc2ccc(-c3cc(N)nc(N)c3)nc2n1CCOc1cccc(F)c1 [Example 199] is less than 0.01 µM?
Result: -1

###

The following molecules are listed with their measured IC50 values.
Target: DYRK1A (Homo sapiens, UniProt Q13627)
Experiment: Kinase TR-FRET assay, DYRK1A
Type: biochemical
Parameters: full-length, wild-type human DYRK1A (NM_001396) with an HA tag; expressed in transfected cells; host or cells: human U2-OS osteosarcoma cells, transient transfection of a pcDNA3.1 plasmid
Details: full-length human kinase, 10 μM ATP
Answer with the figure and its unit, nothing else.

MOLECULE	TESTED_ON	VAL
Cc1nc2ccc(-c3cc(N)nc(N)c3)nc2n1C[C@@H](C)Oc1cccc(Cl)n1 (single isomer, unassigned) [Example 177]	DYRK1A (Homo sapiens, UniProt Q13627)	0.005 µM
Cc1nc2ccc(-c3cc(N)nc(N)c3)nc2n1CC1Cc2ccccc21 (single isomer, unassigned) [Example 112]	DYRK1A (Homo sapiens, UniProt Q13627)	0.006 µM
Cc1nc2ccc(-c3cc(N)nc(N)c3)nc2n1CCc1ccc(Cl)cc1Cl [Example 59]	DYRK1A (Homo sapiens, UniProt Q13627)	0.002 µM
Cc1nc2ccc(-c3cc(N)nc(N)c3)nc2n1Cc1ccc(F)cc1 [Example 10]	DYRK1A (Homo sapiens, UniProt Q13627)	0.032 µM

Q: For the molecule Cc1nc2ccc(-c3cc(N)nc(N)c3)nc2n1CCc1ccc(F)cc1 [Example 96] , give its measured IC50 value.
Result: 0.004 µM

Q: For the molecule Cc1nc2ccc(-c3cc(N)nc(N)c3)nc2n1CC12CC3CC(CC(C3)C1)C2 [Example 22] , give its measured IC50 value.
Result: 0.069 µM

Q: For the molecule Cc1nc2ccc(-c3cc(N)nc(N)c3)nc2n1CCC1CCCC1 [Example 92] , give its measured IC50 value.
Result: 0.002 µM

###

Target: CLK1 (Homo sapiens, UniProt P49759)
Construct: full-length human kinases from Carna Biosciences; purchased Carna Biosciences 04-126
Sequence (P49759 1-526 isoform P49759-3): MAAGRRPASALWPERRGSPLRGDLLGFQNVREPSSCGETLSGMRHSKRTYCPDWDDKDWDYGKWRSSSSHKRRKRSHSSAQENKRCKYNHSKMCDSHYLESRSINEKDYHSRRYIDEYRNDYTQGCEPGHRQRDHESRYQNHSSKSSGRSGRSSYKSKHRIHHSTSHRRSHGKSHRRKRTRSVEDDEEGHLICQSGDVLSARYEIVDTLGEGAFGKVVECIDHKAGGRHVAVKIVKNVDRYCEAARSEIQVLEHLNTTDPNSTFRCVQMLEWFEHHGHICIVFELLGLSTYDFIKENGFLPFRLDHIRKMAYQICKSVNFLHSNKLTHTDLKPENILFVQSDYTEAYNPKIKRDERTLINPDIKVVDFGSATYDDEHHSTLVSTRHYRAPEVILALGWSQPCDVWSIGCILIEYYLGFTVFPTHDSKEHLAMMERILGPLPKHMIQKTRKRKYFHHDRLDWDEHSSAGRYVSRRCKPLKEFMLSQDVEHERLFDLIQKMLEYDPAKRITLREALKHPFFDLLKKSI
Test: Kinase TR-FRET assay, CLK1
Assay type: biochemical
Conditions: full-length human kinase, 10 μM ATP
ENDPOINT_NAME: IC50 (µM)
Provide only the numeric value, understood in µM.

SMILES_STR	QUANTITY_UNIT	IC50
Cc1nc2ccc(-c3cc(N)nc(N)c3)nc2n1CCc1cccc(C(F)(F)F)c1	µM	0.016

Q: For the compound Cc1nc2ccc(-c3cc(N)nc(N)c3)nc2n1CCOc1ccccc1F , give its measured IC50 value.
Result: 0.016

Q: For the compound COc1ccccc1CCn1c(C)nc2ccc(-c3cc(N)nc(N)c3)nc21 , give its measured IC50 value.
Result: 0.015

Q: For the compound Cc1nc2ccc(-c3cc(N)nc(N)c3)nc2n1CCOc1cccc(Br)n1 , give its measured IC50 value.
Result: 0.015

Q: For the compound Cc1nc2ccc(-c3cc(N)nc(N)c3)nc2n1CCOc1ccc(F)cc1 , give its measured IC50 value.
Result: 0.017

Q: For the compound CCCCCCn1c(C)nc2ccc(-c3cc(N)nc(N)c3)nc21 , give its measured IC50 value.
Result: 0.016

###

Molecular target: CDK9 (Homo sapiens)
Construct: full-length human kinases from Carna Biosciences; purchased Carna Biosciences 04-110
Test: Kinase TR-FRET assay, CDK9
Assay type: biochemical
Settings: full-length human kinase, 10 μM ATP
// classify(record): look up IC50 in ranges bottom bin = under 2 µM, middle bin = from 2 µM up to 3 µM, top bin = 3 µM and over

Example entries begin here.
COMPOUND	TESTED_ON	CAT
CCCn1c(C)nc2ccc(-c3cc(N)nc(N)c3)nc21 [Example 2]	CDK9 (Homo sapiens)	bottom bin
Cc1nc2ccc(-c3cc(N)nc(N)c3)nc2n1CC1Cc2ccccc21 (single isomer, unassigned) [Example 112]	CDK9 (Homo sapiens)	middle bin
Cc1nc2ccc(-c3cc(N)nc(N)c3)nc2n1[C@H](C)c1ccnc(F)c1 [Example 149]	CDK9 (Homo sapiens)	top bin
CCCCn1c(C)nc2ccc(-c3cc(N)nc(NC(=O)Cc4ccccc4)c3)nc21 [Example 235]	CDK9 (Homo sapiens)	top bin
Cc1nc2ccc(-c3cc(N)nc(N)c3)nc2[nH]1 [Example 61]	CDK9 (Homo sapiens)	top bin

Q: Tag the class for CCc1nc2ccc(-c3cc(N)nc(N)c3)nc2n1C1CCCC1 [Example 156]
Result: bottom bin

Q: Tag the class for Cc1nc2ccc(-c3cc(N)nc(N)c3)nc2n1CC(C)(C)C [Example 30]
Result: top bin

Q: Tag the class for Cc1nc2ccc(-c3cc(N)nc(N)c3)nc2n1C[C@@H](C)Oc1cccc(F)n1 (single isomer, unassigned) [Example 189]
Result: bottom bin

Q: Tag the class for CCCCCCn1c(C)nc2ccc(-c3cc(N)nc(N)c3)nc21 [Example 94]
Result: bottom bin

Q: Tag the class for Cc1nc2ccc(-c3cc(N)nc(N)c3)nc2n1CCc1ccc(Cl)c(Cl)c1 [Example 58]
Result: top bin

Q: Tag the class for Cc1nc2ccc(-c3cc(N)nc(N)c3)nc2n1Cc1ccncc1 [Example 5]
Result: top bin

Q: Tag the class for COCCCCn1c(C)nc2ccc(-c3cc(N)nc(N)c3)nc21 [Example 151]
Result: middle bin

Q: Tag the class for COc1cccc(CCn2c(C)nc3ccc(-c4cc(N)nc(N)c4)nc32)c1 [Example 152]
Result: top bin

Q: Tag the class for Cc1nc2ccc(-c3cc(N)nc(N)c3)nc2n1CCc1ccsc1 [Example 29]
Result: top bin

Q: Tag the class for Cc1nc2ccc(-c3cc(N)nc(N)c3)nc2n1CCO [Example 3]
Result: middle bin

Q: Tag the class for C=CCn1c(C)nc2ccc(-c3cc(N)nc(N)c3)nc21 [Example 51]
Result: top bin

Q: Tag the class for Cc1nc2ccc(-c3cc(N)nc(N)c3)nc2n1Cc1cc(Cl)ccc1Cl [Example 57]
Result: top bin
